B1: IKZF1 (parent)
chain: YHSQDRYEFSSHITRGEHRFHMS

# Variants of: B1
# Assay notes: protein stability index of a GFP-peptide fusion (GPS, HEK-293T) (PSI 1-6); higher = more stable;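 also: lentivirally expressed fusions sorted by FACS into six bins by GFP to DsRed ratio, PSI derived from sequencing read proportions per bin multiplied by bin number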
# Measurement setup: c terminus: native
Decide using protein stability index: a value greater than or equal to 2 is MET, a smaller one is NOT MET.

Solved cases (5 shown):
Variant annotation: S3E
Category label: MET
--
Variant annotation: Y7K
Category label: NOT MET
--
Variant annotation: S10A
Category label: NOT MET
--
Variant annotation: Q4S
Category label: MET
--
Variant annotation: R6F
Category label: MET

Req: // inclusive: protein stability index at least 2? input: "D5C"
Resp: MET

Req: Is reported protein stability index greater than or equal to 2 here: "S11M"
Resp: NOT MET

Req: Is reported protein stability index greater than or equal to 2 here: "R15A"
Resp: MET

Req: Assess whether reported protein stability index for "Y1W" sits at 2 or higher.
Resp: MET
